Assay: Cytotoxicity SRB assay in Vero cells
Type: cell-based, african green monkey
Settings: african green monkey, CC50, concentration required to reduce cell growth by 50%, 48 h

compound: O=c1cc(-c2ccc(O)c(O)c2)oc2cc(O)cc(O)c12 [Luteolin]
unit name: µg/mL
operator: =
CC50 at 48 h: 6.7
--
compound: O=c1c(O)c(-c2ccc(O)c(O)c2)oc2cc(O)cc(O)c12 [Quercetin]
unit name: µg/mL
operator: =
CC50 at 48 h: 365
--
compound: NC(=O)c1ncn([C@@H]2O[C@H](CO)[C@@H](O)[C@H]2O)n1 [Ribavirin]
unit name: µg/mL
operator: =
CC50 at 48 h: 423
--
compound: O=c1cc(-c2ccc(O)cc2)oc2cc(O)cc(O)c12 [Apigenin]
unit name: µg/mL
operator: >
CC50 at 48 h: 50
